Values compiled from ChEMBL document CHEMBL3091448.

- assay explanation: Half life in C57Bl/6 mouse at 2 mg/kg, iv
- Assay type: ADME, organism-based
- Parameters: dose 2 mg/kg, route intravenous
- test settings: in vivo
reported metric: half-life (min)

INPUT: Note down half-life recorded for `CC(=O)N1C[C@H](S(=O)(=O)c2ccccc2Cl)C[C@H]1C(=O)NC1(C#N)CC1`
OUTPUT: 18

1 = N#CC1(NC(=O)[C@@H]2C[C@@H](S(=O)(=O)c3ccccc3C(F)(F)F)CN2)CC1
2 = N#CCNC(=O)[C@@H]1C[C@@H](S(=O)(=O)c2ccccc2)C[C@H]1C(=O)N1CCOCC1
INPUT: When their half-life values are compared, which is larger, 1 or 2 ? Bench note: the answer is the label of the chosen record.
OUTPUT: 1
(1: 66 min, 2: 18 min)

---

Ratio IC50 values, listed per item
- Species: Homo sapiens
- assay explanation: Selectivity ratio of IC50 for human cathepsin-K to IC50 for human cathepsin-S

Use the examples below as a reference point.
INPUT: Note down Ratio IC50 recorded for `N#CCNC(=O)[C@@H]1C[C@@H](S(=O)(=O)c2ccccc2)C[C@H]1C(=O)N1CCOCC1`
OUTPUT: > 20000

INPUT: Note down Ratio IC50 recorded for `N#CCNC(=O)[C@@H]1CN(S(=O)(=O)c2ccccc2C(F)(F)F)C[C@H]1C(=O)N1CCOCC1`
OUTPUT: > 1000

# input for lookup
INPUT: Note down Ratio IC50 recorded for `N#CCNC(=O)[C@@H]1CN(S(=O)(=O)c2ccccc2Cl)C[C@H]1C(=O)N1CCOCC1`
OUTPUT: > 1000

---

- assay explanation: Half life in C57Bl/6 mouse at 9 mg/kg, po
- Format: ADME, organism-based
- Parameters: dose 9 mg/kg, route oral
- test settings: in vivo
reported metric: half-life (min)

INPUT: Note down half-life recorded for `N#CCNC(=O)[C@@H]1C[C@@H](S(=O)(=O)c2ccccc2)C[C@H]1C(=O)N1CCOCC1`
OUTPUT: 54

P = CC(=O)N1C[C@H](S(=O)(=O)c2ccccc2Cl)C[C@H]1C(=O)NC1(C#N)CC1
Q = N#CC1(NC(=O)[C@@H]2C[C@@H](S(=O)(=O)c3ccccc3C(F)(F)F)CN2)CC1
INPUT: When their half-life values are compared, which is larger, P or Q ? Bench note: the answer is the label of the chosen record.
OUTPUT: Q
(Q: 54 min, P: 30 min)

---

- assay explanation: Oral bioavailability in C57Bl/6 mouse at 9 mg/kg
- Type: ADME, organism-based
- test settings: in vivo
reported metric: bioavailability (%)

INPUT: Note down bioavailability recorded for `N#CC1(NC(=O)[C@@H]2C[C@@H](S(=O)(=O)c3ccccc3C(F)(F)F)CN2)CC1`
OUTPUT: 69

A = N#CCNC(=O)[C@@H]1C[C@@H](S(=O)(=O)c2ccccc2)C[C@H]1C(=O)N1CCOCC1
B = CC(=O)N1C[C@H](S(=O)(=O)c2ccccc2Cl)C[C@H]1C(=O)NC1(C#N)CC1
INPUT: Pick one, A or B : lowest reported bioavailability. Bench note: the answer is the label of the chosen record.
OUTPUT: A

---

- assay explanation: Metabolic stability in NMRI mouse plasma assessed as compound remaining at 1000 ng/mL after 4 hrs
- Assay type: ADME, cell-free
- test settings: read-out: Stability
reported metric: remaining at 4 h, 1000 ng/mL (%)

INPUT: Note down remaining at 4 h, 1000 ng/mL recorded for `CC(=O)N1C[C@H](S(=O)(=O)c2ccccc2Cl)C[C@H]1C(=O)NC1(C#N)CC1`
OUTPUT: 72

1 = N#CCNC(=O)[C@@H]1C[C@@H](S(=O)(=O)c2ccccc2)C[C@H]1C(=O)N1CCOCC1
2 = N#CC1(NC(=O)[C@@H]2C[C@@H](S(=O)(=O)c3ccccc3C(F)(F)F)CN2)CC1
INPUT: When their remaining at 4 h, 1000 ng/mL values are compared, which is larger, 1 or 2 ? Bench note: the answer is the label of the chosen record.
OUTPUT: 1
(1: 99%, 2: 51%)
